# Test Target: Jak2 (UniProt O60674)
# Sequence (O60674 whole entry, looked up): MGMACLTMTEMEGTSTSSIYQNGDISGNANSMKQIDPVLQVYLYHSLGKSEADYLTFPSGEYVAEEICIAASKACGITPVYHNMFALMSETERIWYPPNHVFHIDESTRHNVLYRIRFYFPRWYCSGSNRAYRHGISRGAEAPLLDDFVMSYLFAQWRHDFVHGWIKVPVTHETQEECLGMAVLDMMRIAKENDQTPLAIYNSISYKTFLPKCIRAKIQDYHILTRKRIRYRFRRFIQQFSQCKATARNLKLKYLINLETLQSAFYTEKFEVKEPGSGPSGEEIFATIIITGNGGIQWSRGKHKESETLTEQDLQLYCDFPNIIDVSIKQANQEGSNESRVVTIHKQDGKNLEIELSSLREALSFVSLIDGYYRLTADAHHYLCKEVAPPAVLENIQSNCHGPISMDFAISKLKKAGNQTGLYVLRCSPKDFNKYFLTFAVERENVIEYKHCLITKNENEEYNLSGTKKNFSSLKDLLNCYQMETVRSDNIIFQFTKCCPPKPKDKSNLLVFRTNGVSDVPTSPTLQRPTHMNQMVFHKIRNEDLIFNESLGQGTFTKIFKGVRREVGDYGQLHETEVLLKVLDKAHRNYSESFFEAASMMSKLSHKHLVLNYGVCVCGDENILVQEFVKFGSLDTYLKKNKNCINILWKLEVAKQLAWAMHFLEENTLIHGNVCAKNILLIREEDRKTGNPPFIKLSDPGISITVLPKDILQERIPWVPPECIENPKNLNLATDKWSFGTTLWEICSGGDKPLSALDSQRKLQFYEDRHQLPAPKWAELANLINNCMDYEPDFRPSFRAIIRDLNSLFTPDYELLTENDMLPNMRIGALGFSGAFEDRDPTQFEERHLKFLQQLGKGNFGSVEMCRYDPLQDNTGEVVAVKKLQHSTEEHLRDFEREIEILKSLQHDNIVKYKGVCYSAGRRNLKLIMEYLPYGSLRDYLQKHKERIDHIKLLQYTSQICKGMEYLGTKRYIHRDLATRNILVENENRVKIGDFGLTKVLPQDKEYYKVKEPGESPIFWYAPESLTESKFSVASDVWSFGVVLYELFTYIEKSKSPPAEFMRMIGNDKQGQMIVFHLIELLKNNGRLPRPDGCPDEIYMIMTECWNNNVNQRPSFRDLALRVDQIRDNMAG
# Protocol Text: phosphorylation enrichment, bacterial display (enrichment ratio); higher = better substrate or ligand; peptides without Tyr show the background
Documented phosphorylation enrichment across a set of sequences

NYSKMYCNPDA [KNL1_Y489_A486S] : 0.819
FKGIVYSVSSD [DCX_Y70_A71S] : 0.959
SGTFQYIIAKF [FOXL2_Y83_I80T_YF] : 0.953

input: Requested read-out: phosphorylation enrichment. Entry: DLGIQYKALKP [CTNNA1_Y177]
output: 0.725

input: Returns the measured phosphorylation enrichment for the input sequence. Input: ITNLLYHVVSW [GBA_Y412_G416S]
output: 3.17

input: Would you mind telling me what phosphorylation enrichment value was observed for QTENKYDSVSG [EIF2AK3_Y565] ?
output: 1.98

input: Need phosphorylation enrichment of SMGHRYIEVFK [HNRNPF_Y82] , thanks.
output: 1.05

input: What does the data say about its phosphorylation enrichment? Entry: TDTAAYEERLR [SPTB_Y474_V478L]
output: 0.742

input: State the recorded phosphorylation enrichment for this entry: SFTDPYAQPSL [KMT2D_Y2378_P2382S_YF]
output: 0.689

input: Find the recorded phosphorylation enrichment belonging to PFTRNYYVWAV [CYBA_Y87_R90W] and report it.
output: 2.5

input: Return reported phosphorylation enrichment; argument: TTICKYSTPME [GUCY2C_Y839]
output: 0.756

input: Param item = ASQEEYSAMRD [KRAS_Y64_G60S] ; retrieve measured phosphorylation enrichment.
output: 0.976

input: Which phosphorylation enrichment reading was recorded for the sequence MEFAKYGSLRG [RET_Y809_V804M_YF] ?
output: 0.495

input: Fill blank: measured phosphorylation enrichment of the sequence REIHDYIKHLG [UNC13C_Y308_D304E] is ____.
output: 0.843

input: Requested read-out: phosphorylation enrichment. Entry: HFGNNYRDVLQ [MACC1_Y803_YF]
output: 1.06

input: Field request: phosphorylation enrichment | item: GHNDVYISEHV [GRIN2A_Y1423]
output: 0.407

input: Query (sequence): SEEVTYATLTF [CLEC12B_Y7] ; field requested: phosphorylation enrichment
output: 1.38

input: What value of phosphorylation enrichment has been reported for the following sequence? DPHECYAKVFD [ALB_Y394]
output: 0.88

input: Given CKLCQYYLDHL [ATRX_Y1849_Y1847C] , state its recorded phosphorylation enrichment.
output: 0.806

input: Entry under review: LEEFQYIGESQ [MSH2_Y856] . Reported phosphorylation enrichment?
output: 2.43

input: Could you tell me which phosphorylation enrichment is on file for YCRIMYDIFPF [INTS13_Y67] ?
output: 1.51

input: For the sequence NSVLVYRNGDP [DCDC2_Y22_K17N] , what phosphorylation enrichment is on record?
output: 0.627

input: Given the entry DKGTLYIAEQI [PLBD1_Y375_V377A] , report its measured phosphorylation enrichment.
output: 0.743

input: I am curious: what phosphorylation enrichment value has been reported for IVAREYFSEAD [CAMK2A_Y106_YF] ?
output: 0.965

###

Measured SH2 binding enrichment, listed per entry for reference.
# Test Target: Grb2 SH2 (UniProt P62993)
# Sequence (P62993 whole entry, looked up): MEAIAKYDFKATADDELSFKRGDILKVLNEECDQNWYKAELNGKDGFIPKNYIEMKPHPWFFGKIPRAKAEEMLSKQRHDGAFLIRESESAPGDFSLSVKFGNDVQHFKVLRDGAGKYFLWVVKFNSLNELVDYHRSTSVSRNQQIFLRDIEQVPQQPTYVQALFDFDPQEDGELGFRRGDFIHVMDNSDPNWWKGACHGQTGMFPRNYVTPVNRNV
# Protocol Text: SH2 binding enrichment of the phosphorylated peptide, bacterial display (enrichment ratio); higher = better substrate or ligand; peptides without Tyr show the background
Hey, just send me the number, nothing else.

Please review the entries below; each comes with its answer.
KIKGWYEKCEP [KRT26_Y119] : 0.935
AEPHTYEEPGR [EPHA8_Y616] : 0.882
KIIRWYVSSEG [ANK2_Y3907_R3906W] : 1.19

input: Look up SH2 binding enrichment for this sequence: PPPPAYDDMAQ [TNK2_Y635_V638M]
output: 0.699

input: GET /values?readout=SH2 binding enrichment&item= TSQSQYFSFRE [CCDC170_Y323]
output: 1.15

input: Name the reported SH2 binding enrichment value associated with the sequence MCDSHYLESRF [CLK1_Y56_S61F]
output: 0.905

input: # input sequence: QPDLLYDHIQP [TRRAP_Y862_F860L] ; wanted: its SH2 binding enrichment
output: 0.733
